System: Vero E6
PROCEDURE TEXT: cell viability relative to DMSO; higher = less toxic
RUN PARAMETERS: 72 h; 10 nM
PROPERTY LABEL: cell viability (%)
Write down the numeric answer in % and omit the unit.

Req: Retrieve cell viability measured for O=C(Nc1cnc(Cl)nc1)c1ccc(F)c(F)c1 and print it.
Resp: 92.1

Req: Answer with the recorded cell viability for the molecule listed here: OC1=c2ccccc2=C(NC2CCCCC2)/C1=C\c1ccccc1
Resp: 95.2

Req: # return recorded cell viability for input CCCCCCCC/C=C\CCCCCCCC(=O)NCCO [oleoylethanolamide]
Resp: 102

Req: Query cell viability for O=C(OOC(=O)c1ccccc1)c1ccccc1 [benzoyl-peroxide]
Resp: 98.8

Req: Respond only with cell viability recorded for O=C(O)COc1ccc(OCCNC[C@H](O)COc2ccccc2)cc1 [ICI-215,001]
Resp: 97.5

Req: Please list cell viability recorded for the molecule O=C(Nc1cccnn1)N1CCC(=Cc2cccc(Oc3ccc(C(F)(F)F)cn3)c2)CC1
Resp: 93.3

Req: Given the molecule CN(C)c1ccc(-c2nc3c(N4CCN(CC(=O)Nc5nccs5)CC4)c(Cl)cnc3[nH]2)cc1 , write its reported cell viability.
Resp: 97.6

Req: Identify measured cell viability associated with CC(=O)N1CCN(C)CC1 [1-acetyl-4-methylpiperazine]
Resp: 104

Req: Answer with the recorded cell viability of Cc1cccc(OCC(O)CNC(C)(C)C)c1C (stereo not given) [xibenolol] only.
Resp: 99.3

Req: Read off the recorded cell viability for CC(C)(C)c1ccc(C(=O)CCCN2CCC(OC(c3ccccc3)c3ccccc3)CC2)cc1 [ebastine]
Resp: 98.7

Req: Given COC(=O)c1cnn(-c2ccc(F)cc2F)c1/C=N/NC(=S)NC(C)(C)C , respond with its cell viability.
Resp: 101

Req: // fetch cell viability given entry CCc1cccc2c3c([nH]c12)C(CC)(CC(=O)O)OCC3 (stereo not given) [etodolac]
Resp: 98.8

Req: Give cell viability for O=c1ccc2cc(O[C@@H]3O[C@H](CO)[C@@H](O)[C@H](O)[C@H]3O)c(O)cc2o1 [esculin]
Resp: 98.8

Req: Return value of cell viability for input NC1(c2ccc(-c3nc4ccn5c(=O)[nH]nc5c4cc3-c3ccccc3)cc2)CCC1 [MK-2206] , no commentary.
Resp: 94.7

Req: Name the recorded cell viability of the item COC(=O)[C@H](c1ccccc1Cl)N1CCc2sccc2C1 [clopidogrel] in your answer.
Resp: 86.7

Req: Quickly give me recorded cell viability for O=C(NCC(=O)N1CCCCC1)Nc1ccc2nnsc2c1 [UNC2327]
Resp: 103

Req: Give the value of cell viability reported for the following: c1ccc([C@H]2CNCc3ccccc32)cc1 [4-phenyl-1,2,3,4-tetrahydroisoquinoline]
Resp: 99.4

Req: Please give measured cell viability of the following entry: Cc1cc(-c2cc(O)ccc2Cl)cc2nnc(Nc3ccc(OCCN4CCCC4)cc3)nc12
Resp: 100

Req: In one line, give reported cell viability of the entry C[C@@H]1c2ccccc2CN1CC1=NCCN1 (racemic) .
Resp: 97.8

Req: Kindly indicate its recorded cell viability. Item: CCN[C@H]1C[C@H](C)S(=O)(=O)c2sc(S(N)(=O)=O)cc21 [dorzolamide]
Resp: 101
